- measured-on: ROCK2 (Homo sapiens (Human))
pIC50: −log10 of the molar value.
We'd kindly ask you to apply these pIC50 classes: low-valued: < 6; mid-valued: ≥ 6 and < 7; high-valued: ≥ 7

>>> cat("O=C(Nc1ccc2c(c1)OCc1cnccc1-2)c1nc2ccccc2[nH]1")
"mid-valued"
>>> cat("CS(=O)(=O)c1ccc(C(=O)Nc2ccc3c(c2)OCc2cnccc2-3)cc1")
"low-valued"
>>> cat("O=C(Cc1ccncc1)Nc1ccc2c(c1)OCc1cnccc1-2")
"mid-valued"
>>> cat("O=C(Cc1ccccn1)Nc1ccc2c(c1)OCc1cnccc1-2")
"mid-valued"
>>> cat("CS(=O)(=O)c1cccc(C(=O)Nc2ccc3c(c2)OCc2cnccc2-3)c1")
"low-valued"
>>> cat("O=C(Cc1cccc(Cl)c1)Nc1ccc2c(c1)OCc1cnccc1-2")
"high-valued"
>>> cat("CSc1ccc(CC(=O)Nc2ccc3c(c2)OCc2cnccc2-3)cc1")
"mid-valued"
>>> cat("COC(=O)c1ccc(C(=O)Nc2ccc3c(c2)OCc2cnccc2-3)cc1")
"mid-valued"
>>> cat("O=C(Nc1cccc(Cl)c1)Nc1ccc2c(c1)OCc1cnccc1-2")
"low-valued"
>>> cat("O=C(Nc1ccc2c(c1)OCc1cnccc1-2)N1CCc2ccccc21")
"mid-valued"

As a next step, examine the molecule that follows.
Asked: Class label required: O=C(Cc1ccc(F)cc1Cl)Nc1ccc2c(c1)OCc1cnccc1-2
Given back: high-valued

----------
- measured-on: ROCK2 (Homo sapiens (Human), UniProt O75116)
- Sequence (O75116 whole entry, species assumed): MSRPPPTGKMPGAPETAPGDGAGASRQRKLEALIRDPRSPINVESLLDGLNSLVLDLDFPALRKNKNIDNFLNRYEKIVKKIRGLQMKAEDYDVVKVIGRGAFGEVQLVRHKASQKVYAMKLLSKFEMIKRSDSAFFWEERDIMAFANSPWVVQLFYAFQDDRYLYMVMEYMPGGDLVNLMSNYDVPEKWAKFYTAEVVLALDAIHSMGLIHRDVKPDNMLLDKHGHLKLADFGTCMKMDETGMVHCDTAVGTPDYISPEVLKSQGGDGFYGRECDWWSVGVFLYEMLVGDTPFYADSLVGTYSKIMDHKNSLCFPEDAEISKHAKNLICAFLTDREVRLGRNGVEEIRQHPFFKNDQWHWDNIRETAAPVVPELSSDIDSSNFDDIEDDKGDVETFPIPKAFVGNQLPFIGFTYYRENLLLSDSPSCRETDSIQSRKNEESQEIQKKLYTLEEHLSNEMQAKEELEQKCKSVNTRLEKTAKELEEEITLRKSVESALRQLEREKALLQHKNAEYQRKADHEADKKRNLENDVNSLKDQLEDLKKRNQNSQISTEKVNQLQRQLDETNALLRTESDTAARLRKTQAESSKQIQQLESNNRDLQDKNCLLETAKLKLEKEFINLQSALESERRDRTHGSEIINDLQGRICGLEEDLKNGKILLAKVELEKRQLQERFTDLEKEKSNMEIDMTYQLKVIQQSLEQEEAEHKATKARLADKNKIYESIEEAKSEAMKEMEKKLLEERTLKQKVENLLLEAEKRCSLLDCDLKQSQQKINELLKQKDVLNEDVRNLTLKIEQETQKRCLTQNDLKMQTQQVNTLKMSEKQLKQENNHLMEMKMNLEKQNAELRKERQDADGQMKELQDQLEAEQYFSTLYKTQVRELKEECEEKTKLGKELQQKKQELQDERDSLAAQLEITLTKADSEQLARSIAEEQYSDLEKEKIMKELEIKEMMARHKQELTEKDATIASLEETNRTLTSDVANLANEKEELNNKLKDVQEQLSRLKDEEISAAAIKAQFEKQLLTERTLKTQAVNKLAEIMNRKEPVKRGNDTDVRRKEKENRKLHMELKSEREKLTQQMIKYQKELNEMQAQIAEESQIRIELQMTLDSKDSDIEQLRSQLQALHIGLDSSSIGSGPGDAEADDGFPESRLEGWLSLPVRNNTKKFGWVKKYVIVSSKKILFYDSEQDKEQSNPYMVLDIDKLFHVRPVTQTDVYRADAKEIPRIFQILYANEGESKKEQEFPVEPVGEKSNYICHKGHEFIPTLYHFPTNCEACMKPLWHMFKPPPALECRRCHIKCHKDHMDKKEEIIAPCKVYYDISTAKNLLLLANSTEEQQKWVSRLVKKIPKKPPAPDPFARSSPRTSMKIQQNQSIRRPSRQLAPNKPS
- assay-summary: ROCK assay (Caliper LABCHIP peptide phosphorylation, 5 μM ATP)
- Format: biochemical
- experimental-parameters: 1.5 μM peptide substrate
Recorded measurements of IC50, one per entry
All answers are understood in nM, so give the number only.

Worked examples, 5 compounds total:
>>> observed_result("COc1cc(CC(=O)Nc2ccc3c(c2)OCc2cnccc2-3)cc(OC)c1")
393
>>> observed_result("O=C(Nc1ccc2c(c1)OCc1cnccc1-2)c1csc(-c2ccncc2)n1")
316
>>> observed_result("O=C(Nc1ccc2c(c1)OCc1cnccc1-2)c1cccc(Cl)c1")
4500
>>> observed_result("COc1ccc(CC(=O)Nc2ccc3c(c2)OCc2cnccc2-3)cc1OC")
2500
>>> observed_result("O=C(CCn1ccnc1)Nc1ccc2c(c1)OCc1cnccc1-2")
992

Asked: For CS(=O)(=O)c1ccc(CC(=O)Nc2ccc3c(c2)OCc2cnccc2-3)cc1 , what is its reported IC50?
Given back: 1760

Asked: Next compound up: COc1ccc(CC(=O)Nc2ccc3c(c2)OCc2cnccc2-3)cc1
Given back: 497

Asked: Next compound up: COc1ccc(CCC(=O)Nc2ccc3c(c2)OCc2cnccc2-3)cc1
Given back: 1140

Asked: Next compound up: Cn1cccc1C(=O)Nc1ccc2c(c1)OCc1cnccc1-2
Given back: 2960

----------
- measured-on: ROCK2 (Homo sapiens (Human), UniProt O75116)
endpoint-name: IC50 (nM)
All answers are understood in nM, so give the number only.

Worked examples, 6 compounds total:
>>> observed_result("COc1ccc(C(=O)Nc2ccc3c(c2)OCc2cnccc2-3)cc1 [Example I-55]")
3250
>>> observed_result("O=C(Nc1ccc2c(c1)OCc1cnccc1-2)c1ccc(F)cc1 [Example I-28]")
3440
>>> observed_result("O=C(Cc1cnccn1)Nc1ccc2c(c1)OCc1cnccc1-2 [Example I-49]")
1250
>>> observed_result("NS(=O)(=O)c1ccc(C(=O)Nc2ccc3c(c2)OCc2cnccc2-3)cc1 [Example I-40]")
500
>>> observed_result("Cc1cc(C)cc(CC(=O)Nc2ccc3c(c2)OCc2cnccc2-3)c1 [Example I-16]")
110
>>> observed_result("O=C(Cc1cc(F)cc(C(F)(F)F)c1)Nc1ccc2c(c1)OCc1cnccc1-2 [Example I-23]")
368

Asked: For O=C(Cc1cc(F)cc(F)c1)Nc1ccc2c(c1)OCc1cnccc1-2 [Example I-17] , what is its reported IC50?
Given back: 37.8

Asked: Next compound up: Cc1ccccc1CC(=O)Nc1ccc2c(c1)OCc1cnccc1-2 [Example I-15]
Given back: 16.7

Asked: Next compound up: N[C@H](CCc1ccccc1)C(=O)Nc1ccc2c(c1)OCc1cnccc1-2 [Example I-4]
Given back: 128

----------
- measured-on: ROCK2 (Homo sapiens (Human), UniProt O75116)
endpoint-name: IC50 (µM)
All answers are understood in µM, so give the number only.

Worked examples, 6 compounds total:
>>> observed_result("O=C(Cc1ccc(Cl)cc1)Nc1ccc2c(c1)OCc1cnccc1-2")
0.134
>>> observed_result("O=C(Nc1cccnc1)Nc1ccc2c(c1)OCc1cnccc1-2")
1.42
>>> observed_result("O=C(CCc1ccc(Cl)cc1)Nc1ccc2c(c1)OCc1cnccc1-2")
0.323
>>> observed_result("O=C(Nc1ccc2c(c1)OCc1cnccc1-2)c1csnn1")
2.76
>>> observed_result("CN(C)c1ccc(C(=O)Nc2ccc3c(c2)OCc2cnccc2-3)cc1")
2.37
>>> observed_result("O=C(CCCc1ccccc1)Nc1ccc2c(c1)OCc1cnccc1-2")
0.682

Asked: Item: O=C(Cc1ccc(F)cc1)Nc1ccc2c(c1)OCc1cnccc1-2 Test system: ROCK2 (Homo sapiens (Human), UniProt O75116) Read-out: IC50 Value: ?
Given back: 0.0387

Asked: Next compound up: O=C(Cc1cccnc1)Nc1ccc2c(c1)OCc1cnccc1-2
Given back: 0.287

Asked: Next compound up: CC(C(=O)Nc1ccc2c(c1)OCc1cnccc1-2)c1ccccc1Cl (centres unmarked)
Given back: 0.0335

Asked: Next compound up: O=C(Cc1ccc(Cl)c(Cl)c1)Nc1ccc2c(c1)OCc1cnccc1-2
Given back: 0.362

Asked: Next compound up: O=C(Cc1ccccc1)Nc1ccc2c(c1)[nH]c1cnccc12
Given back: 0.0095

Asked: Next compound up: COc1ccc(CCNC(=O)Nc2ccc3c(c2)OCc2cnccc2-3)cc1
Given back: 1.61

Asked: Next compound up: CC(=O)Nc1cccc(C(=O)Nc2ccc3c(c2)OCc2cnccc2-3)c1
Given back: 0.434

Asked: Next compound up: O=C(Cc1c(Cl)cccc1Cl)Nc1ccc2c(c1)OCc1cnccc1-2
Given back: 0.161

Asked: Next compound up: O=C(Nc1ccc2c(c1)OCc1cnccc1-2)c1csc(-c2cccnc2)n1
Given back: 0.644

Asked: Next compound up: O=C(Nc1ccc2c(c1)OCc1cnccc1-2)c1ccccc1-c1ccccc1
Given back: 1.22

Asked: Next compound up: O=C(Cc1ccc(-n2cnc3ccccc3c2=O)cc1)Nc1ccc2c(c1)OCc1cnccc1-2
Given back: 1.13

----------
- measured-on: ROCK2 (Homo sapiens (Human), UniProt O75116)
Lab note - cut at 0.2 µM for IC50: met if strictly below, not met if not.

>>> cat("O=C(Nc1ccc2c(c1)OCc1cnccc1-2)c1ccccc1Cl [Example I-51]")
"not met"
>>> cat("O=C(Cc1ccc(C(F)(F)F)cc1)Nc1ccc2c(c1)OCc1cnccc1-2 [Example I-69]")
"not met"
>>> cat("O=C(Cc1nnn[nH]1)Nc1ccc2c(c1)OCc1cnccc1-2 [Example I-59]")
"not met"

Asked: In the record for O=C(CCc1ccc(O)cc1)Nc1ccc2c(c1)OCc1cnccc1-2 [Example I-58] , is IC50 less than 0.2 µM?
Given back: met

Asked: Next compound up: O=C(Cc1ccc(Cl)cc1Cl)Nc1ccc2c(c1)OCc1cnccc1-2 [Example I-14]
Given back: met

Asked: Next compound up: O=C(NCCc1ccccc1F)Nc1ccc2c(c1)OCc1cnccc1-2 [II-7]
Given back: not met

Asked: Next compound up: O=C(NCCc1cccc(Cl)c1)Nc1ccc2c(c1)OCc1cnccc1-2 [II-10]
Given back: not met

Asked: Next compound up: Cc1cc(F)ccc1CC(=O)Nc1ccc2c(c1)OCc1cnccc1-2 [Example I-24]
Given back: met
